Target: T1, human HER3 antigen (Sino Biologicals) (human, UniProt P21860 20-643)
T1 construct: Bought soluble antigen; also called human antigen
Test: SPR (ProteOn XPR36), IgG captured by anti-human Fc, soluble monovalent antigen, 1:1 fit
Measured Metric: kon (M⁻¹ s⁻¹)
Give bare numbers, in M⁻¹ s⁻¹.

Item humanized anti-HER3 antibody 11052 (antibody, V domains shown) VH: QVQLQESGPGLVKPSQTLSLTCTVSGYSITSAYYWNWIRQFPGKGVEWMGYIGYSGRNTYNPSLKNRVTISRDTSKNQFSLKLSSVTAADTAVYYCSREGDYGYSDYWGQGTLVTVSS VL: DIQMTQSPSSLSASVGDRVTVTCRASQDINNYLNWYQQKPGKAVKLLIYYTSRLQSGVPSRFSGSGSGTDYTLTISSLQPEDFATYFCQQSETLPWTFGQGTKLEIK has what recorded kon?
870000

Hey, quick one: what's kon for each of these?
1. chimeric anti-HER3 antibody 5082 (antibody, V domains shown, light chain entry is full length) VH: EVQLKESGPGLVKPSQSLSLTCSVTGYSITSAYYWNWIRQFPGNKVEWMGYIGYDGRNTYNPSLKNRISITRDTSKNQFFLKLNSLTTEDTATYYCSREGDYGYSDYWGQGTTLTVS VL: DIVMTQATSSLSASLGDRVTVSCRASQDINNYLNWYQQKPDGTVKLLIYYTSRLQSGVPSRFSGSGSGIDYSLTISNLEQEDFVTYFCQQSETLPWTFGGGTKLELKR
2. chimeric anti-HER3 antibody 5038 (antibody, V domains shown, light chain entry is full length) VH: EVKLVESGPGLVKPSQSLSLTCSVTGYSITSGFYWTWIRQFPGNKLEWMGFISYDGSNNYNPSLKNRISITRDTSKNQFFLKLNSVTTEDTATYYCARGGGYYGNLFDYWGQGTTLTVS VL: DIVMTQTTSSLSASLGDRVTISCRPSQDISNYVNWFQQKPGGTVKLLIFHTSRLHSGVPSRFSGSGSGTDYSLTISTLEQEDIAIYFCQQGITLPWTFGGGTKLEIKR

1: 910000; 2: 300000

The measurements presented in this section are drawn from patent US20170165365A1.
